Tested on: HOP-92
protocol.notes: NCI tumour cell line growth inhibition, 48 h
The source made the active and inactive calls. No stated cut-off is given here; in the data, active = GI50 up to about 1.1 µM and inactive = higher.
The categories you may choose from are 1.0 for active, 0.0 for inactive

Prompt: Hi team, can someone confirm the assay call for O=c1/c(=C/c2ccco2)sc2nc3ccccc3n12 ?
Response: 0.0

Prompt: Entry O=C(Cc1cccs1)N[C@@H]1C(=O)N2C(C(=O)OC(c3ccccc3)c3ccccc3)=C(CO)CS[C@H]12 : call = ?
Response: 0.0

Prompt: Lab log entry: C=CCNC(=O)NC1=CSC2=NC(=O)C3(NN12)c1ccccc1-c1ccccc13 — outcome as called in the assay?
Response: 0.0

Prompt: # lookup: test call for O=C(NC(=O)c1ccccc1[N+](=O)[O-])Nc1ccc(Oc2ncc(Cl)cn2)c([N+](=O)[O-])c1
Response: 1.0

Prompt: Status in this test for NCC(=O)Nc1ccc(Cl)cc1C(=O)c1ccc[nH]1 ?
Response: 0.0

Prompt: Please state the recorded outcome for this molecule: Cc1oc2c(C)c3oc(=O)cc(C)c3cc2c1CNC(=O)[C@@H]1OCCOCCOCCOCCOCCOC1C(=O)O (some centres not stated)
Response: 0.0

Prompt: Could you please tell me the result logged for CCCCc1ccc(-n2sc3ncc(C)cc3c2=O)cc1 in this assay?
Response: 0.0
